Let's look at some compounds and their measured pIC50.
# assayedTarget: USP1/UAF1 enzyme (Homo sapiens)
# Sequence (O94782 whole entry): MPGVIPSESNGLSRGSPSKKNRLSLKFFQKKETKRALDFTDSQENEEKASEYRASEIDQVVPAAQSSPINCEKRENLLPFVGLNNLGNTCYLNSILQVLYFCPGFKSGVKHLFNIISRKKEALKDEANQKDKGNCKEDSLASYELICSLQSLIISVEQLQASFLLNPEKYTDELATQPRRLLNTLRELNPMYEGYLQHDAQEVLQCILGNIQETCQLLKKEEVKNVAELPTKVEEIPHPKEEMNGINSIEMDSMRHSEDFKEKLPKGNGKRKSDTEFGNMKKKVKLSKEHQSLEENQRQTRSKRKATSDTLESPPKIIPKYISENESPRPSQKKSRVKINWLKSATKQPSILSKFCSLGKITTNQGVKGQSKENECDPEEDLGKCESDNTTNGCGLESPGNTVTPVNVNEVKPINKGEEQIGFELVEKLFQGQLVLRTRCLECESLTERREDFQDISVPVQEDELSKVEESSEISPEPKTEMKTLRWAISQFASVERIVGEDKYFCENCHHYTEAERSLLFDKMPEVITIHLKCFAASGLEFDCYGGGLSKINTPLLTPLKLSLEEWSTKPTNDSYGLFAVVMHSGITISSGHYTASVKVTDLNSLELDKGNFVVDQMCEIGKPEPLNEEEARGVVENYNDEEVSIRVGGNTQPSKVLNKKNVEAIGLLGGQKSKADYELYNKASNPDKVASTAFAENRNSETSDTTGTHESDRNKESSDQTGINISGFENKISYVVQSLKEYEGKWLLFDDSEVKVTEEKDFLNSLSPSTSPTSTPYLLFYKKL
# Sequence (Q8TAF3 whole entry partner): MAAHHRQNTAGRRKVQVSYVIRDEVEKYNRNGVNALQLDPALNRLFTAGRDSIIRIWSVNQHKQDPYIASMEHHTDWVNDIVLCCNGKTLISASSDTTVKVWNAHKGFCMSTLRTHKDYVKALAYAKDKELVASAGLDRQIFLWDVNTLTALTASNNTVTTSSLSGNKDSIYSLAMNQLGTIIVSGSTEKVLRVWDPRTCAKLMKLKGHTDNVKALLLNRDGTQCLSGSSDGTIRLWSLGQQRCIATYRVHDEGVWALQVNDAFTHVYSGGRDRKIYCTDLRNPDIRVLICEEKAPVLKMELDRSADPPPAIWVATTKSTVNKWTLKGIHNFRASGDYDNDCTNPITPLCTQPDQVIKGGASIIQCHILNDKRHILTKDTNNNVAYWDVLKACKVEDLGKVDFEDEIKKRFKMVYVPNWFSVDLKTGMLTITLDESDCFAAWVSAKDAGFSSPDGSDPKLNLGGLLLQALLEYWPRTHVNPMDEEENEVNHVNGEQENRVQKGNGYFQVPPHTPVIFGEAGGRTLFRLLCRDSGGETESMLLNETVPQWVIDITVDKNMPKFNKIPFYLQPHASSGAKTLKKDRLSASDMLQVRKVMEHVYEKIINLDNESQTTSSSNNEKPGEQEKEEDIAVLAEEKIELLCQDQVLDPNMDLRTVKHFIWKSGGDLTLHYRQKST
# assayMethodText: USP1/UAF1 deubiquitination assay (ubiquitin-rhodamine 110 substrate)
# conditionDetails: read-out: USP1 IC50 (Ub-Rho)
pIC50: −log10 of the molar value.

Lookup: Consider the compound COc1ccc(C(F)(F)F)nc1-c1ccc(CN2C(=O)CCn3nc(-c4c(Cl)cnn4C(C)C)cc32)cc1Cl [Example 294] and give its measured pIC50.
Found: > 7.00

***
Lookup: Consider the compound CC(C)n1cc(C(F)(F)F)nc1-c1ccc(CN2C(=O)CCn3nc(-c4c(OC(F)F)ncnc4C4CC4)nc32)cc1 [Example 369] and give its measured pIC50.
Found: > 7.00

Lookup: Consider the compound COc1ncnc(C2CC2)c1-c1nc2n(n1)CCC(=O)N2[C@@H](C)c1ccc(-c2nc(C(F)(F)F)c(Br)n2C)cc1 [Example 205] and give its measured pIC50.
Found: > 7.00

Lookup: Consider the compound CC(C)n1cc(F)nc1-c1ccc(CN2C(=O)CCn3nc(-c4c(Cl)cnn4C(C)C)cc32)cc1Cl [Example 297] and give its measured pIC50.
Found: 6.30 to 7.00

Lookup: Consider the compound COc1ncnc(C2CC2)c1-c1cc2n(n1)CCC(=O)N2Cc1ccc(-c2nc(C(F)(F)F)cn2C)c(F)c1 [Example 2] and give its measured pIC50.
Found: > 7.00

Lookup: Consider the compound COc1nccnc1-c1ccc(CN2C(=O)CCn3nc(-c4c(Cl)cnn4C(C)C)cc32)cc1Cl [Example 274] and give its measured pIC50.
Found: 6.30 to 7.00

Lookup: Consider the compound CC(C)Oc1cccnc1-c1ccc(CN2C(=O)CCn3nc(-c4c(Cl)cnn4C(C)C)nc32)cc1 [Example 304] and give its measured pIC50.
Found: > 7.00

Lookup: Consider the compound CCn1cc(C(F)(F)F)nc1-c1ccc(NC2CCCn3nc(-c4c(Cl)cnn4C(C)C)cc32)cc1F (stereo not shown) [Example 241] and give its measured pIC50.
Found: > 7.00

----------
# assayMethodText: ADME solubility determination in PBS at pH 2.0 and pH 7.4
# Format: physicochemical
# conditionDetails: phosphate buffered saline, 25 °C, pH 2, aqueous buffer, thermodynamic from solid, PBS pH 2.0, 25° C., read-out: Solubility at pH 2.0
metric: solubility at 24 h

Take a look at these entries with their results.
Lookup: Consider the molecule COc1cccnc1-c1ccc(CN2C(=O)CCn3nc(-c4c(Cl)cnn4C(C)C)cc32)cc1 and give its measured solubility at 24 h.
Found: ≥ 10 µM

Lookup: Consider the molecule COc1c(CN2C(=O)CCn3nc(-c4c(Cl)cnn4C(C)C)nc32)ccc(-c2nc(C(F)(F)F)cn2C(C)C)c1F and give its measured solubility at 24 h.
Found: < 10 µM

Lookup: Consider the molecule CCn1cc(C(F)(F)F)nc1-c1ccc(CN2C(=O)CCn3nc(-c4c(Cl)cnn4C(C)COC)cc32)cc1 (stereo not shown) and give its measured solubility at 24 h.
Found: < 10 µM

Lookup: Consider the molecule Cc1cnn(C(C)C)c1-c1nn2c(c1Cl)N(Cc1ccc(-c3nc(C(F)(F)F)cn3C)cc1)C(=O)CC2 and give its measured solubility at 24 h.
Found: < 10 µM

Lookup: Consider the molecule CCn1cc(C(F)(F)F)nc1-c1ccc([C@H](C)n2c(=O)ccn3nc(-c4c(OC)ncnc4C4CC4)nc23)cc1 and give its measured solubility at 24 h.
Found: ≥ 10 µM

***
Lookup: Consider the molecule CCn1cc(C(F)(F)F)nc1-c1ccc(N[C@@H]2CCCn3nc(-c4c(OC)ncnc4C4CC4)cc32)cc1 (single isomer, unassigned) and give its measured solubility at 24 h.
Found: ≥ 10 µM

Lookup: Consider the molecule COc1ncnc(C2CC2)c1-c1nc2n(n1)CCC(=O)N2[C@@H](C)c1ccc(-c2nc(C(F)(F)F)cn2C(C)C)c(F)c1 and give its measured solubility at 24 h.
Found: ≥ 10 µM
